system: Staphylococcus aureus; assay: Antibacterial activity against Staphylococcus aureus ACH-0126 isolate with gyrA Ser84Leu and grlA Ser80Phe mutant after 24 hrs by broth microdilution method; assay type: functional
List of MIC values.
Report the figure in µg/mL without appending any unit label.

Recorded results for 5 compounds are shown here.
# compound, unit.text, MIC
measured = [
    ("Cc1cc(-c2cc3c(cc2F)c(=O)c2c(=O)[nH]sc2n3C2CC2)ccn1", "µg/mL", 0.5),
    ("COc1c(N2C[C@@H]3CCCN[C@@H]3C2)c(F)cc2c(=O)c(C(=O)O)cn(C3CC3)c12", "µg/mL", 4),
    ("CO/N=C1\\CN(c2nc3c(cc2F)c(=O)c(C(=O)O)cn3C2CC2)CC1CN (stereo unspecified)", "µg/mL", 4),
    ("CC[n+]1c(-c2ccccc2)c2cc(N)ccc2c2ccc(N)cc21.[Br-] [HOMIDIUM BROMIDE]", "µg/mL", 4),
    ("COc1c(-c2cc(C)nc(C)c2)c(F)cc2c(=O)c3c(=O)[nH]sc3n(C3CC3)c12", "µg/mL", 0.125),
]

As a next step, examine the compound that follows.
*Q* Item COc1c(-c2ccnc(C)c2)c(F)cc2c(=O)c3c(=O)[nH]sc3n(C3CC3)c12 has what recorded MIC?
*A* 0.125
